Where do the numbers come from? From ChEMBL document CHEMBL4138170.

Provide the reported IC50 of each item.
Tested on: HepG2
experiment-description: Antiproliferative activity against human HepG2 cells after 48 hrs by MTT assay
Format: functional, cell-based
stated-conditions: HepG2, 48 h
Answers are plain numbers, in µM.

Q: What does the record list as IC50 for Cl.Cl.Cl.O=C1c2cccc3cccc(c23)C(=O)N1CCCNCCCNCCCNC1CC1 ?
Result: 6.34

Q: Also check O=C1c2cccc3cccc(c23)C(=O)N1CCCCNCCCCNCCCCNC1CCCCC1
Result: 37

Q: Also check CCCNCCCNCCCCNCCCN1C(=O)c2cccc3cccc(c23)C1=O
Result: 7.66

Dear colleague, could you send me IC50 for each of the items below? Thanks.
1. CCNCCCNCCCNCCCN1C(=O)c2cccc3cccc(c23)C1=O
2. CCNCCCNCCCCNCCCN1C(=O)c2cccc3cccc(c23)C1=O

Result:
1: 6.77; 2: 5.22

====

Tested on: SMMC-7721
experiment-description: Antiproliferative activity against human SMMC7721 cells after 48 hrs by MTT assay
Format: functional, cell-based
stated-conditions: SMMC-7721, 48 h
pIC50: −log10 of the molar value.
Returns one of Condition met or Condition not met; Condition met when pIC50 is >= 5.

Q: Threshold query (pIC50 >= 5) on CCCNCCCCNCCCCNCCCCN1C(=O)c2cccc3cccc(c23)C1=O
Result: Condition not met

Further cases:
Q: Threshold query (pIC50 >= 5) on O=C1c2cccc3cccc(c23)C(=O)N1CCCNCCCCNCCCNC1CC1
Result: Condition met

====

Tested on: SMMC-7721
experiment-description: Antiproliferative activity against human SMMC7721 cells after 48 hrs by MTT assay
Format: functional, cell-based
stated-conditions: SMMC-7721, 48 h
quantity-measured: IC50 (µM)
Numbers only, in µM.

# annotated cases, reported IC50 shown
Q: What does the record list as IC50 for CCNCCCNCCCCNCCCN1C(=O)c2cccc3cccc(c23)C1=O ?
Result: 11

Q: Also check O=C1c2cccc3cccc(c23)C(=O)N1CCCCNCCCCNCCCCNC1CC1
Result: 12

Further cases:
Q: What does the record list as IC50 for CCCNCCCNCCCNCCCN1C(=O)c2cccc3cccc(c23)C1=O ?
Result: 11.2
